// reported recovery for each item listed
Assay Remarks: In vitro protein binding in human plasma
Format: in vitro ADME
Experimental Conditions: human, plasma, protein binding assay, 1.0×10^−5 M; read-out: % Recovery, 1st
Result Type: recovery (%)

- Line Notation: "COc1cc(C[C@@H](C)N)c(OC)cc1I"
  Test Result: 126
- Line Notation: "COc1cc(CC(C)C)c(OC)cc1CCN"
  Test Result: 107

* * *

Assay Remarks: In vitro absorption, Caco-2 permeability
Assay type: in vitro ADME
Experimental Conditions: human, Caco-2, pH 6.5, Caco-2, pH 6.5/7.4, 1.0×10^−5 M; read-out: % Recovery A-B, 1st
// reported recovery for each item listed
Result Type: recovery (%)

- Line Notation: "COc1cc(CC(C)C)c(OC)cc1CCN"
  Test Result: 45
- Line Notation: "COc1cc(C[C@@H](C)N)c(OC)cc1I"
  Test Result: 72
